system: HepG2 cells; assay: Sulf2 silencing and Sorafenib in liver cancer cell model; format: cell-based; conditions: Homo sapiens, Sorafenib exposure 72 h, read-out: IC50 in inhibiting tumor growth (Sorafenib)
Reported property: IC50

IC50 measured on CNC(=O)c1cc(Oc2ccc(NC(=O)Nc3ccc(Cl)c(C(F)(F)F)c3)cc2)ccn1 = ~4 µM
